meta.source: patent EP0066373A1

A set of compounds tested on E. coli ESS, with measured MIC:
readoutLabel: MIC (µg/mL)

INSERT INTO assay_data (compound, reported) VALUES
  ('CO[C@@]1(NC(=O)C(c2ccc(OC(C)=O)c(OC(C)=O)c2)S(=O)(=O)O)C(=O)N2[C@@H](C(=O)O)C(C)(C)S[C@@H]21 (stereo partly shown)', 0.2),
  ('CO[C@@]1(NC(=O)[C@@H](c2ccc(OC(C)=O)c(OC(C)=O)c2)S(=O)(=O)O)C(=O)N2[C@@H](C(=O)O)C(C)(C)S[C@@H]21', 0.2),
  ('CO[C@@]1(NC(=O)C(c2ccc(O)c(O)c2)S(=O)(=O)O)C(=O)N2[C@@H](C(=O)O)C(C)(C)S[C@@H]21 (stereo partly shown)', 0.5),
  ('CO[C@@]1(NC(=O)[C@@H](c2ccc(O)c(O)c2)S(=O)(=O)O)C(=O)N2[C@@H](C(=O)O)C(C)(C)S[C@@H]21', 0.1);
